- studySystem: human orexin 2 receptors (Homo sapiens)
- Sequence (O43614 whole entry): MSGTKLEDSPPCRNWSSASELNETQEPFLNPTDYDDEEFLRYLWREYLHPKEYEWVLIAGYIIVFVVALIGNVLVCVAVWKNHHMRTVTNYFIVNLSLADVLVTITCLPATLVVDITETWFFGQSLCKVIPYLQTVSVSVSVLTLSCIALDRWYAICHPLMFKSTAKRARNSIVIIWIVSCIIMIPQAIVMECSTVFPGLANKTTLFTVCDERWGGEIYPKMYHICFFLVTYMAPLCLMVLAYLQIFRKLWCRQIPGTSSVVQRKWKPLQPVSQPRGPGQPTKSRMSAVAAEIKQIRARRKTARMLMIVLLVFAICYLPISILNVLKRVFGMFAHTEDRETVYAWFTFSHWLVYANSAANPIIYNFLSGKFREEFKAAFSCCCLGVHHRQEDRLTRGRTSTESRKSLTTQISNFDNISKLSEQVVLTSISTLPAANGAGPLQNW
- assayInfo: Calcium accumulation in cells (FLIPR), hOx2R
- cond: cells expressing human orexin 2 receptor; inhibition of orexin A-induced calcium accumulation; Cheng and Prusoff correction
Ki values for the compounds below.

Observe how each entry below is paired with its result.
[in] Return Ki for the following compound: Cc1nc(N2CCC3(CCCN(Cc4c[nH]c5ccccc45)C3=O)CC2)ncc1F
[out] 40 nM

[in] Return Ki for the following compound: CCc1ccnc(N2CCC3(CCCN(Cc4c[nH]c5ccccc45)C3=O)CC2)n1
[out] 126 nM

[in] Return Ki for the following compound: Cc1cc(C#N)cc(N2CCC3(CCCN(Cc4cccc(-c5ncccn5)c4)C3=O)CC2)n1
[out] 49 nM

[in] Return Ki for the following compound: COc1cncc(N2CCC3(CCCC(=O)N3Cc3cccc4[nH]ccc34)CC2)n1
[out] 17 nM

[in] Return Ki for the following compound: O=C1N(Cc2c[nH]c3ncccc23)CCCC12CCN(c1cncc(Cl)n1)CC2
[out] 123 nM

[in] Return Ki for the following compound: N#Cc1ccc(N2CCC3(CCCC(=O)N3Cc3cccc4[nH]ccc34)CC2)nc1
[out] 200 nM

[in] Return Ki for the following compound: N#Cc1ccnc(N2CCC3(CCCN(Cc4ccccc4-n4nccn4)C3=O)CC2)c1
[out] 645 nM

Then this compound:
[in] Return Ki for the following compound: COCc1cccc(N2CCC3(CCCN(Cc4c[nH]c5ccccc45)C3=O)CC2)n1
[out] 639 nM

----------
- studySystem: human orexin 1 receptors (Homo sapiens)
- Sequence (O43613 whole entry): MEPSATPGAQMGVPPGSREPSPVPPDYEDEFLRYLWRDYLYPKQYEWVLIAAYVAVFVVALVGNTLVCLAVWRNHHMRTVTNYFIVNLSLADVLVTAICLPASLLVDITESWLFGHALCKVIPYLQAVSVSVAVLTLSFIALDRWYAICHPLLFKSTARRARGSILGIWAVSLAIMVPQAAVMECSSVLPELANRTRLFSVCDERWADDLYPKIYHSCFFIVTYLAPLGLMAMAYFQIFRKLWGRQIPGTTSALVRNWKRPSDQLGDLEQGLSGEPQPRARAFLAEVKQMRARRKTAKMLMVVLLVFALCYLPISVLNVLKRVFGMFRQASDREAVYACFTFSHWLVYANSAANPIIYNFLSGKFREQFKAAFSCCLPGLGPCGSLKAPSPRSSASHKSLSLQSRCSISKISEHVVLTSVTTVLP
- assayInfo: Calcium accumulation in cells (FLIPR), hOx1R
pKi values for the compounds below.
The quantity pKi is defined as the negative base-10 logarithm of the molar concentration.

[in] Return pKi for the following compound: COc1ccnc(N2CCC3(CCCN(Cc4c[nH]c5ccccc45)C3=O)CC2)n1 [Example 13]
[out] 6.28

Continuing:
[in] Return pKi for the following compound: COc1cccc(N2CCC3(CCCN(Cc4c[nH]c5ccccc45)C3=O)CC2)c1 [Example 60]
[out] 5.51

[in] Return pKi for the following compound: COc1cncc(N2CCC3(CCCC(=O)N3Cc3cccc4[nH]ccc34)CC2)n1 [Example 43]
[out] 6.14

[in] Return pKi for the following compound: CC(C)c1ccnc(N2CCC3(CCCN(Cc4c[nH]c5ccccc45)C3=O)CC2)n1 [Example 50]
[out] 5.73

[in] Return pKi for the following compound: Cc1cc(C)nc(N2CCC3(CCCN(Cc4c[nH]c5ccccc45)C3=O)CC2)n1 [Example 5]
[out] 6.06

----------
- studySystem: UniProt:O43613
pKd values for the molecules below.
The quantity pKd is defined as the negative base-10 logarithm of the molar concentration.

Observe how each entry below is paired with its result.
[in] // fetch pKd for Cc1cnc(N2CCC3(CCCN(Cc4c[nH]c5ccccc45)C3=O)CC2)nc1C [Example 81] ; system: UniProt:O43613
[out] 6.10

[in] // fetch pKd for Cc1cc(C)nc(N2CCC3(CCCN(Cc4cccc(-c5noc(C)n5)c4)C3=O)CC2)n1 [Example 22] ; system: UniProt:O43613
[out] 5.88

[in] // fetch pKd for Cc1cncc(N2CCC3(CCCN(Cc4c[nH]c5ccccc45)C3=O)CC2)n1 [Example 11] ; system: UniProt:O43613
[out] 5.18

[in] // fetch pKd for Cc1cc(N(C)C)nc(N2CCC3(CCCN(Cc4c[nH]c5ccccc45)C3=O)CC2)n1 [Example 113] ; system: UniProt:O43613
[out] 6.41

Then this molecule:
[in] // fetch pKd for Cc1cc(C)nc(N2CCC3(CCCN(Cc4nn(C)nc4Br)C3=O)CC2)n1 [Example 118] ; system: UniProt:O43613
[out] 5.68
